System: 926638-142-R-J1-PDC complex spheroid viability;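 also: spheroids exposed to drugs for one week before readout; percent viability relative to DMSO vehicle control wells set as 100%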
Experiment: Anticancer human tumor 926638-142-R-J1-PDC patient-derived endometrial carcinoma cell line growth inhibition [POLQ]
Conditions: second compound 0.0316 µM; first compound 3.16 µM; active compounds read low
Measured viability, T/C, listed per entry for reference.
Field: numeric (%). Do not append units.

Prompt: API: value(readout= viability, T/C, system= 926638-142-R-J1-PDC complex spheroid viability, query= O=C(c1cc(Cc2n[nH]c(=O)c3ccccc23)ccc1F)N1CCN(C(=O)C2CC2)CC1 + Cc1cccc(N(C)C(=O)C2C(O)CCN2c2nc(C)cc(C(F)(F)F)c2C#N)c1 );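 also: spheroids exposed to drugs for one week before readout; percent viability relative to DMSO vehicle control wells set as 100%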
Completion: 74.5

Prompt: Under 926638-142-R-J1-PDC complex spheroid viability: viability, T/C value of CCc1cc2c(N3CCc4c(cc(Cn5ccnc5)cc4-c4cn(C)nc4C(F)(F)F)C3=O)cc(C)nc2c(OC)n1 + Cc1cccc(N(C)C(=O)C2C(O)CCN2c2nc(C)cc(C(F)(F)F)c2C#N)c1 ?
Completion: 31.8

Prompt: Query the reported viability, T/C for 926638-142-R-J1-PDC complex spheroid viability; item: CNCc1ccc(-c2[nH]c3cc(F)cc4c3c2CCNC4=O)cc1 + COC1C(OC(N)=O)C(O)C(Oc2ccc3c(O)c(NC(=O)c4ccc(O)c(CC=C(C)C)c4)c(=O)oc3c2C)OC1(C)C
Completion: 87.7

Prompt: 926638-142-R-J1-PDC complex spheroid viability / viability, T/C / CCc1cc2c(N3CCc4c(cc(Cn5ccnc5)cc4-c4cn(C)nc4C(F)(F)F)C3=O)ccnc2c(OC)n1 + COC1C(OC(N)=O)C(O)C(Oc2ccc3c(O)c(NC(=O)c4ccc(O)c(CC=C(C)C)c4)c(=O)oc3c2C)OC1(C)C : value?
Completion: 28

Prompt: Please state recorded viability, T/C (tested on 926638-142-R-J1-PDC complex spheroid viability) of C=CC(=O)N1CCN(c2nc(=O)n(-c3c(C)ccnc3C(C)C)c3nc(-c4c(O)cccc4F)c(F)cc23)C(C)C1 (stereo not given) + Nc1ccc(C#CCN(C(=O)Cc2ncc(C(F)(F)F)cc2C(F)(F)F)c2ccc(F)cc2)nn1;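 also: spheroids exposed to drugs for one week before readout; percent viability relative to DMSO vehicle control wells set as 100%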
Completion: 88.4
